# credit: paper PMC5607274

target_or_test_system: human recombinant Yes [a.a. 2–543 (end)] (Homo sapiens, UniProt P07947)
Construct: human recombinant Yes [a.a; 2–543 (end)]; purchased BPS Bioscience 40488
Sequence (P07947 2-543): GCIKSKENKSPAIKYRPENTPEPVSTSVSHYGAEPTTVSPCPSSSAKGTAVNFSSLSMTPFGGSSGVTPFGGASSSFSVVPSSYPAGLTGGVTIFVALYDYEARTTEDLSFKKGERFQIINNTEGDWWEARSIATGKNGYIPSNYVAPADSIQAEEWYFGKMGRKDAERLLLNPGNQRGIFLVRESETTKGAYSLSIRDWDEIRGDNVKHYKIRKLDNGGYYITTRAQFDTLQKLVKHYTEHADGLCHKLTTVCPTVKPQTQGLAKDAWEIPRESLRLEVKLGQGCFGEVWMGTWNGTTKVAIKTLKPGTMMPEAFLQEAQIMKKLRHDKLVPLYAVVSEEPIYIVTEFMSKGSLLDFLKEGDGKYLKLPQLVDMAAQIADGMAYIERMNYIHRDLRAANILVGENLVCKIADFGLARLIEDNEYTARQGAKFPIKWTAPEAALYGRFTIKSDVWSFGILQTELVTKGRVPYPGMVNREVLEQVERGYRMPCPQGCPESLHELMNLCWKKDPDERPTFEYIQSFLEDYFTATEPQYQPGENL
protocol_description: ADP-Glo kinase assay, inhibition rates of Yes phosphorylation activity (first and second screening)
Format: biochemical
experimental_parameters: first screening; mean of n = 4 wells; 10 μmol L−1 compound
observation_type: First screening IR (inhibition rate) (%)
Provide the reading as a plain figure in %.

COCCN(CCC#N)S(=O)(=O)c1ccccc1S(C)(=O)=O : 42

Problem: # input compound: CC(OC(=O)c1ccc(-c2ccc(O)cc2)cc1)C(=O)c1ccc(F)c(F)c1 (centres unmarked) ; wanted: its First screening IR (inhibition rate)
Solution: 27

Problem: # input compound: Cc1c(-c2ccccc2)nc2ccc(Cl)cc2c1-c1ccccc1.Cl ; wanted: its First screening IR (inhibition rate)
Solution: 20

Problem: # input compound: O=C(CCNC(=O)c1cc2cc(F)ccc2[nH]1)Nc1ccccn1 ; wanted: its First screening IR (inhibition rate)
Solution: -10

Problem: # input compound: Nc1ncnc2sc3c(c12)CCN(C(=O)c1ccc2c(c1)CCC2)C3 ; wanted: its First screening IR (inhibition rate)
Solution: 4

----------
target_or_test_system: human recombinant Yes [a.a. 2–543 (end)] (Homo sapiens, UniProt P07947)
Construct: human recombinant Yes [a.a; 2–543 (end)]; purchased BPS Bioscience 40488
protocol_description: ADP-Glo kinase assay, inhibition rates of Yes phosphorylation activity (first and second screening)
Format: biochemical
experimental_parameters: first screening; mean of n = 4 wells; 10 μmol L−1 compound
Parameter First screening IR (inhibition rate): see the listing below.
Provide the reading as a plain figure in %.

Problem: Which First screening IR (inhibition rate) is reported with human recombinant Yes [a.a. 2–543 (end)] (Homo sapiens, UniProt P07947) for this entry: NS(=O)(=O)c1cc(S(=O)(=O)c2ccc(Cl)c(S(N)(=O)=O)c2)ccc1Cl [Compound Z56888775] ?
Solution: -18

Problem: Which First screening IR (inhibition rate) is reported with human recombinant Yes [a.a. 2–543 (end)] (Homo sapiens, UniProt P07947) for this entry: CCC1CCCCN1S(=O)(=O)c1cc(S(C)(=O)=O)ccc1Cl (stereo not shown) [Compound Z355127288] ?
Solution: 7

Problem: Which First screening IR (inhibition rate) is reported with human recombinant Yes [a.a. 2–543 (end)] (Homo sapiens, UniProt P07947) for this entry: Cn1ncc2c(N3CCOC(Cn4cccn4)C3)ncnc21 (stereo not shown) [Compound Z1139215576] ?
Solution: 18

Problem: Which First screening IR (inhibition rate) is reported with human recombinant Yes [a.a. 2–543 (end)] (Homo sapiens, UniProt P07947) for this entry: CC1CC2CCCCC2N1c1ncnc2c1nnn2-c1ccccc1 (stereo not shown) [Compound Z1270084447] ?
Solution: 45

----------
target_or_test_system: human recombinant Yes [a.a. 2–543 (end)] (Homo sapiens, UniProt P07947)
Construct: human recombinant Yes [a.a; 2–543 (end)]; purchased BPS Bioscience 40488
protocol_description: ADP-Glo kinase assay, inhibition rates of Yes phosphorylation activity (first and second screening)
Assay type: biochemical
experimental_parameters: first screening; mean of n = 4 wells; 10 μmol L−1 compound
Parameter First screening IR (inhibition rate): see the listing below.
Provide the reading as a plain figure in %.

Please review the following examples before continuing.
Cc1nn(-c2ccccc2)c2nc(-c3ccccc3)cc(C(F)(F)F)c12 : -6
Cc1ccc(-n2nc(C)c3c(C(=O)Nc4nc(CN5CCOCC5)cs4)cc(-c4ccccc4)nc32)cc1 : -1
CC(C)c1nn(C)c(Cl)c1CNCc1ccc(N2CCOCC2)c(F)c1 : -12

Problem: Which First screening IR (inhibition rate) is reported with human recombinant Yes [a.a. 2–543 (end)] (Homo sapiens, UniProt P07947) for this entry: CCN(C1CCS(=O)(=O)C1)S(=O)(=O)c1c(C)c(C)c(C)c(C)c1C (centres unmarked) ?
Solution: 8

Problem: Which First screening IR (inhibition rate) is reported with human recombinant Yes [a.a. 2–543 (end)] (Homo sapiens, UniProt P07947) for this entry: CC(NC(=O)C(NC(=O)c1ccco1)C(C)C)c1ccc(-n2ccnc2)cc1 (centres unmarked) ?
Solution: 4

Problem: Which First screening IR (inhibition rate) is reported with human recombinant Yes [a.a. 2–543 (end)] (Homo sapiens, UniProt P07947) for this entry: Cc1ccc(C)c(S(=O)(=O)CCN(C)Cc2nc3ccccc3c(=O)[nH]2)c1 ?
Solution: -9

Problem: Which First screening IR (inhibition rate) is reported with human recombinant Yes [a.a. 2–543 (end)] (Homo sapiens, UniProt P07947) for this entry: O=c1cc(-c2ccccc2)c2cc(Cl)c(OCCO)cc2o1 ?
Solution: 15

Problem: Which First screening IR (inhibition rate) is reported with human recombinant Yes [a.a. 2–543 (end)] (Homo sapiens, UniProt P07947) for this entry: COCCN1C(=O)/C(=C/c2c(N3CCN(Cc4ccccc4)CC3)nc3ccc(C)cn3c2=O)SC1=S ?
Solution: -11

----------
Parameter First screening IR (inhibition rate): see the listing below.
target_or_test_system: human recombinant Yes [a.a. 2–543 (end)] (Homo sapiens, UniProt P07947)
Construct: human recombinant Yes [a.a; 2–543 (end)]; purchased BPS Bioscience 40488
protocol_description: ADP-Glo kinase assay, inhibition rates of Yes phosphorylation activity (first and second screening)
Assay type: biochemical
experimental_parameters: first screening; mean of n = 4 wells; 10 μmol L−1 compound
Provide the reading as a plain figure in %.

Please review the following examples before continuing.
O=C(Nc1ccc2[nH]c(=O)[nH]c2c1)c1cc2c(s1)-c1ccccc1CC2 [Compound Z26792816] : 4
FC(F)(F)c1ccnc(Nc2ccc3c(c2)OC2(CCCCC2)O3)n1 [Compound Z285712986] : 4
COc1ccc(CSCc2nc(N)nc(Nc3ccccc3C)n2)cc1F [Compound Z45342622] : 6
Cc1c(-c2ccccc2)nc2ccc(Cl)cc2c1-c1ccccc1Cl.Cl [Compound Z48951725] : -2
CCc1cccc(NC(=O)COC(=O)Cc2cccc3ccccc23)c1 [Compound Z19678477] : 7
CCC(C)(C)C1C/C(=C/c2cc(Br)c(O)c(OC)c2)c2nc3ccccc3c(C(=O)O)c2C1 (centres unmarked) [Compound Z46116622] : 5
COc1ccc(Br)c(C(=O)NCc2ccc(-c3csc(C)n3)cc2)c1 [Compound Z131231284] : -17

In the following, a different compound is considered.
Problem: # input compound: Oc1c(Br)cccc1CNCc1ncc(-c2ccccc2)o1 [Compound Z1135283259] ; wanted: its First screening IR (inhibition rate)
Solution: -4

----------
Parameter First screening IR (inhibition rate): see the listing below.
target_or_test_system: human recombinant Yes [a.a. 2–543 (end)] (Homo sapiens, UniProt P07947)
Construct: human recombinant Yes [a.a; 2–543 (end)]; purchased BPS Bioscience 40488
protocol_description: ADP-Glo kinase assay, inhibition rates of Yes phosphorylation activity (first and second screening)
Format: biochemical
experimental_parameters: first screening; mean of n = 4 wells; 10 μmol L−1 compound
Provide the reading as a plain figure in %.

Please review the following examples before continuing.
Cc1nn(C)c2nc(-c3ccccc3)cc(C(=O)Nc3ccc4[nH]c(=O)[nH]c4c3)c12 : -6
COc1ccc(/C(O)=C2\C(=O)C(=O)N(CCN3CCNCC3)C2c2cccc(Oc3ccccc3)c2)cc1 (stereo not shown) : 6
CN(C)C(C)(C)CNC(=O)Cc1c[nH]c2cccc(Br)c12 : -4

In the following, a different molecule is considered.
Problem: # input molecule: COC1(C)CC(N(C)C(=O)NC2CCCn3nc(C(C)C)nc32)C1(C)C (stereo not shown) ; wanted: its First screening IR (inhibition rate)
Solution: -1

----------
Parameter First screening IR (inhibition rate): see the listing below.
target_or_test_system: human recombinant Yes [a.a. 2–543 (end)] (Homo sapiens, UniProt P07947)
Construct: human recombinant Yes [a.a; 2–543 (end)]; purchased BPS Bioscience 40488
protocol_description: ADP-Glo kinase assay, inhibition rates of Yes phosphorylation activity (first and second screening)
Type: biochemical
experimental_parameters: first screening; mean of n = 4 wells; 10 μmol L−1 compound
Provide the reading as a plain figure in %.

Please review the following examples before continuing.
Cc1ccc(S(=O)(=O)N(C)c2ccc(OCC(=O)Nc3ccc4oc(C)nc4c3)cc2)cc1 [Compound Z70909087] : 17
CN(C1CCCCC1)S(=O)(=O)N1CCN(c2cn[nH]c(=O)c2Cl)CC1 [Compound Z357945110] : -10
CCOC(=O)c1c(-c2ccc(OC)c(OC)c2)csc1NC(=O)CN1CCN(c2cccc(OC)c2)CC1 [Compound Z46357060] : 5

Problem: Which First screening IR (inhibition rate) is reported with human recombinant Yes [a.a. 2–543 (end)] (Homo sapiens, UniProt P07947) for this entry: Cc1cc(C)c(C(=O)COc2ncnc3ccccc23)cc1C [Compound Z18537178] ?
Solution: 7
